System: Sam68 (KHDRBS1)
Experiment: Sam68 small-molecule binders, primary screen, biochemical, small-molecule microarray, 635 nm fluorescence (AID 1125);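 note: score merges 667 nm channel intensity with signal to noise over triplicate slides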
Details: small-molecule microarray binding, higher = more signal
# cutoff 0.7 applies to composite z-score; >= gives yes (1), < gives no (0)

>  <molecule>
C=CC[C@@]1(C(=O)NCCCOC)N=C(c2ccc(OCCCO)cc2)O[C@@H]1c1ccccc1CN=[N+]=[N-]

>  <system tested>
Sam68 (KHDRBS1)

>  <label class>
yes (1)

$$$$

Now take the following molecule into account.
[in] Identify whether the reported composite z-score of the following molecule is 0.7 or greater: C=CCC(OC(C)=O)[C@@H]1[C@@H](N(Cc2ccc(-c3ccccc3)cc2)C(=O)Cc2ccc(OC)cc2)c2cc(OCCCO)ccc2N1C(=O)c1ccc2ccccc2c1 (stereo partly drawn)
[out] no (0)

Numbers sourced from PubChem BioAssay.
